All values here come from a melting point compilation (Tetko et al.; mined from patent text by program, amines drawn as free bases though some values may be those of a salt).

Catalogue of melting point values

CC(=NOCCO)c1ccc(-c2ccc3c(c2)OCO3)cc1: 132 to 134 °C
NCCc1c2n(c3ccccc13)CCNCC2: 77 to 80 °C
Cc1cc(=O)c2[nH]nc(C)c2[nH]1: > 346 °C
COC(=O)C1=C(C)NC2=C(C(=O)OC2)C1c1cccc(Br)c1 (stereo not given): 229 to 231 °C
COC(=O)c1ccc(-c2nc(-c3ccc(Cl)cc3)co2)cc1: 183 to 184 °C

[Q] Consider the molecule Cn1c(COc2ccc(C=O)cc2)nc2ccc(Sc3cc(C(C)(C)C)c(O)c(C(C)(C)C)c3)cc21 and give its measured melting point.
[A] 219 to 221 °C

[Q] I would be grateful if you could share the reported melting point for COc1cc2c(cc1OC)CN(c1nc(N)c3cc(OC)c(OC)cc3n1)C2 .
[A] 264 to 266 °C

[Q] So what's the measured melting point for this one? O=C(O)CCCc1ccc([N+](=O)[O-])cn1
[A] 108 to 110 °C

[Q] // lookup melting point for Cc1nc(C2(C)CC2(Cl)Cl)nn1-c1c(Cl)cc(C(F)(F)F)cc1Cl (stereo not given)
[A] 107 to 116 °C

[Q] Entry Cc1nc2cc(NC(=O)c3cc4cc(F)ccc4n3Cc3cccc(F)c3)ccn2c1-c1ccccc1 has what melting point?
[A] 217 to 218 °C
